test: thermodynamic solubility (saturation solubility) in various media, quantified by HPLC; type: physicochemical; conditions: thermodynamic from solid; water, 24 hours at 25 °C; read-out: thermodynamic solubility, assay expressed as base
Structures can show the parent of a compound that is named as a salt.
Property label: solubility thermodynamic at 24 h (mg/mL)
One number for each entry, in mg/mL.

Record request: solubility thermodynamic at 24 h value, item CC[C@@H](c1cccc(O)c1)[C@@H](C)CN(C)C [Tapentadol hydrochloride]
330

* * *

test: thermodynamic solubility (saturation solubility) in various media, quantified by HPLC; type: physicochemical; conditions: citrate buffer pH 6.8, aqueous buffer, thermodynamic from solid; citrate pH 6.8, 24 hours at 25 °C; read-out: thermodynamic solubility, assay expressed as base
Structures can show the parent of a compound that is named as a salt.
Property label: solubility thermodynamic at 24 h (mg/mL)
Give bare numbers, in mg/mL.

Reported solubility thermodynamic at 24 h, compound CC[C@@H](c1cccc(O)c1)[C@@H](C)CN(C)C [Tapentadol hydrochloride] : ____
318

* * *

assay: thermodynamic solubility (saturation solubility) in various media, quantified by HPLC; format: physicochemical; conditions: fassgf or other biorelevant, thermodynamic from solid; SIF sp pH 6.8, 24 hours at 25 °C; read-out: thermodynamic solubility, assay expressed as base
Counter-ions that a name gives are not always drawn.
Property label: solubility thermodynamic at 24 h (mg/mL)
One number for each entry, in mg/mL.

Any idea what its solubility thermodynamic at 24 h is? The compound is CC[C@@H](c1cccc(O)c1)[C@@H](C)CN(C)C [Tapentadol hydrochloride]
324

* * *

assay: thermodynamic solubility (saturation solubility) in various media, quantified by HPLC; type: physicochemical; details: acetate buffer pH 4.5, aqueous buffer, thermodynamic from solid; acetate pH 4.5, 24 hours at 25 °C; read-out: thermodynamic solubility, assay expressed as base
Counter-ions that a name gives are not always drawn.
Property label: solubility thermodynamic at 24 h (mg/mL)
Give bare numbers, in mg/mL.

Would you kindly share the measured solubility thermodynamic at 24 h for CC[C@@H](c1cccc(O)c1)[C@@H](C)CN(C)C [Tapentadol hydrochloride] ?
327
